Data provenance: PubChem BioAssay AID330

test system: P388 leukemia ip, CD2F1 mice, survival T/C; assay: NCI In Vivo Anticancer Drug Screen. Data for tumor model P388 Leukemia (intraperitoneal) in CD2F1 (CDF1) mice; settings: endpoint: median survival time; dose: 50.0 mg/kg/injection; schedule: Q01DX009 (ip); vehicle: Klucel (hydroxypropylcellulose) (HPC); higher = longer survival
Toxic doses and inconclusive results are not listed.
Listed here are compounds together with their documented T/C.
recorded-endpoint: T/C

Cc1ccc(NC(=S)SCc2ccc3c(c2)OCO3)cc1Br : 120 % of control
CCCCCCCCCCCCCCCCS(=O)(=O)N/N=C(/C)N(C)c1ccc(OC)cc1 : 107 % of control
COC(OC)C1(C)NC(=O)NC1=O (stereo unspecified) : 102 % of control
O=C1c2ccccc2C(=O)c2c(NC(=O)c3ccc4c5c(ncnc35)-c3ccccc3C4=O)cccc21 : 95 % of control
O=C(c1cccs1)c1ccc(Cl)cc1Cl : 107 % of control
CC1(C)CC(=O)C(CC(=O)c2ccccc2)=C(NN=C(N)N)C1 : 101 % of control

----------
// reported T/C for each item listed
system: P388 leukemia ip, CD2F1 mice, survival T/C; assay: NCI In Vivo Anticancer Drug Screen. Data for tumor model P388 Leukemia (intraperitoneal) in CD2F1 (CDF1) mice; conditions: endpoint: median survival time; dose: 120.0 mg/kg/injection; schedule: Q01DX005 (ip); vehicle: Klucel (hydroxypropylcellulose) (HPC); higher = longer survival
Toxic doses and inconclusive results are not listed.
recorded-endpoint: T/C

COC(=O)c1nc(N)nc(C(=O)OC)c1C(=O)c1ccc(Cl)cc1 : 101 % of control
O=C1OCC(c2ccno2)=C1O : 100 % of control
Cc1cc(C(F)(F)F)nc2nc3ccccc3n12 : 102 % of control
COc1ccc(S(=O)(=O)O)cc1N=N/C(=N/Nc1cc(S(=O)(=O)O)ccc1OC)C(=O)Nc1ccccc1 : 101 % of control
COC1=NC2=NC(OC)=NC3=C(Br)C=C(Br)C(=N1)N23 : 92 % of control
CC1CCN(C(=O)Nc2c(Cl)cccc2Cl)CC1 : 101 % of control
Cn1c(=O)c2c(ncn2N)n(C)c1=O : 102 % of control
COC(=O)c1c2cc(C(C)(C)C)cc-2c(N(C)C)nc(N(C)C)c1C(=O)OC : 95 % of control
CCCn1c(O)c(C(=O)CC)sc1=S : 99 % of control
Cc1cccc(Cl)c1NC(=O)CSCCN(C)C : 103 % of control
COC(=O)c1nc(=S)[nH]c(C(=O)OC)c1C(=O)c1c(C)[nH]c2ccccc12 : 96 % of control
Nc1nc(SCC(=O)O)[nH]c(=O)c1NS(=O)(=O)c1ccccc1[N+](=O)[O-] : 91 % of control

----------
Item-by-item account of T/C
Tested on: P388 leukemia ip, CD2F1 mice, survival T/C
Experiment: NCI In Vivo Anticancer Drug Screen. Data for tumor model P388 Leukemia (intraperitoneal) in CD2F1 (CDF1) mice
Details: endpoint: median survival time; dose: 240.0 mg/kg/injection; schedule: Q01DX005 (ip); vehicle: saline with Tween-80; higher = longer survival
Experimental: The antitumor activity of compounds was measured in mice bearing transplantable tumors. Survival or tumor size were measured and the results are expressed as the measurement made in the treated group (T) divided by the measurement made in the vehicle treated control group (C). The tumor model used in this assay is P388 Leukemia (intraperitoneal) in CD2F1 (CDF1) mice
Toxic doses and inconclusive results are not listed.
recorded-endpoint: T/C

CCn1c2ccc(N(C)C)cc2c2cc(N(C)C)ccc21 : 102 % of control
O=C(CC1(O)C(=O)Nc2ccccc21)c1cccc2ccccc12 (stereo unspecified) : 103 % of control
O=S(=O)(Nc1ccc(C(F)(F)F)cc1)c1ccc(F)cc1 : 104 % of control
CCCCCC(Nc1nncs1)Nc1nncs1 : 105 % of control
COc1ccc(C(c2cc3c(cc2O)OCO3)N2CCN(C(c3ccc(OC)c(O)c3)c3cc4c(cc3O)OCO4)CC2)cc1O (stereo unspecified) : 112 % of control
Cc1cccc(/C=C/c2csnn2)n1 : 96 % of control
C=CCN(CC=C)C(=O)Nc1cc(OC)ccc1OC : 103 % of control
Cc1ccc2c(c1)C1(SC(C)C(=O)N1c1ccc(I)cc1)C(=O)N2 (stereo unspecified) : 91 % of control
Nc1nc2c(C(=O)c3ccco3)nnn2c2cccc(Cl)c12 : 104 % of control
COc1nc2[nH]ccc2c(=O)n1C : 89 % of control
O=C(Nc1ccc(F)cc1)N1CCOCC1 : 93 % of control
c1ccc(Cc2csc3nc4ccccc4n23)cc1 : 99 % of control
COc1cc(/C=N/NC(=O)CNC(=O)c2ccccc2)ccc1O : 94 % of control
Cc1cccc(C(C#N)C(=O)CCCC(=O)Nc2ccccc2[N+](=O)[O-])c1 (stereo unspecified) : 94 % of control
CON1C(=O)C(c2ccccc2)c2ccccc21 (stereo unspecified) : 96 % of control
C#CCN1C(=O)N(CC#C)C(=O)C(CC#C)(C(CC=C)c2ccccc2)C1=O (stereo unspecified) : 96 % of control
CCN(CC)P(=S)(c1ccccc1CCP(=S)(c1ccccc1)c1ccccc1)N(CC)CC : 91 % of control
[N-]=[N+]=Nc1ccc(SN2C(=O)c3ccccc3C2=O)cc1 : 113 % of control
N#CC(C(=O)C(=O)Nc1cccc(C(F)(F)F)c1)c1ccc(Cl)cc1Cl (stereo unspecified) : 92 % of control
O=[N+]([O-])c1cccc(C2=NON(c3ccccn3)C3C=CC=CN23)c1 (stereo unspecified) : 92 % of control
O=S(=O)(Nc1cc(C(F)(F)F)ccc1Cl)c1ccc(F)cc1 : 100 % of control
